All figures here come from ChEMBL document CHEMBL1201862.

tested on: A498; test: NCI tumour cell line growth inhibition, 48 h
Activity calls are given as the source filed them. No stated cut-off is given here; in the data, active = GI50 up to about 1.1 µM and inactive = higher.
assayReadout: GI50

Consider the following illustrative entries.
CC1SC2(CCCCC2)N(NC(=O)CSc2nc3ccc(Cl)cc3c(=O)n2-c2ccccc2)C1=O (centres undefined)
32.6 µM (inactive)
CC(C)(C)C(=O)C(C(c1ccccc1)N1CCOCC1)N1CCOCC1 (centres undefined)
> 100 µM (inactive)
COc1cc2c(c(OC)c1)/C(=C/Sc1ccccc1)C(=O)N(C(C)(C)C)C2
32.4 µM (inactive)
CSc1c(C#N)c(=O)n(N)c2[nH]nc(C)c12
91.6 µM (inactive)
CCOC(=O)[N-]c1ccc(S(=O)(=O)[O+](C)CCl)cc1.CCOC(=O)[N-]c1ccc(S(=O)(=O)[O+](C)CCl)cc1.NC(=O)N=O.NC(=O)OCCCl
> 100 µM (inactive)

Quick one: GI50 for CC(=O)OCC1OC(N2C(=O)C(=O)c3cc(C)ccc32)C(OC(C)=O)C(OC(C)=O)C1OC(C)=O (centres undefined) ?
> 100 µM (inactive)

Quick one: GI50 for Cc1ccccc1CN1CC2=C(CCN(Cc3ccccc3)C2=O)N2CCN=C12 ?
13.1 µM (inactive)

Quick one: GI50 for CC(=O)c1ccc(NC(=O)/C(=N\NC(N)=O)C(C#N)CC(C)(C)C=O)cc1 (centres undefined) ?
> 100 µM (inactive)

Quick one: GI50 for O=C(c1ccccc1O)c1cc(-c2ncc3c(=O)c4ccccc4oc3n2)c(-c2ccccc2O)[nH]c1=O ?
21.3 µM (inactive)

###

system: XF498; assay: NCI tumour cell line growth inhibition, 48 h
The source made the active and inactive calls. No stated cut-off is given here; in the data, active = GI50 up to about 1.1 µM and inactive = higher. Where a SMILES comes first, the peptide text is derived from it. [ ]: non-standard residue; d: D form. The star is where a group is joined. ξ: configuration not given here. X4 = COc1ccc(C(N*)c2ccc(OC)cc2)cc1; NMeF = CN[C@@H](Cc1ccccc1)C(=O)O; NMeD = CN[C@@H](CC(=O)O)C(=O)O; NMeV = CN[C@H](C(=O)O)C(C)C; ξNMeV = CNC(C(=O)O)C(C)C; Boc = CC(C)(C)OC(=O)*; ξNMeA = CNC(C)C(=O)O; ξV = CC(C)C(N)C(=O)O
assayReadout: GI50

Consider the following illustrative entries.
c1ccc(CNc2ccc3[nH]c4cnccc4c3c2)cc1
19.4 µM (inactive)
COc1ccc(N2C(=O)C3c4[nH]c5ccccc5c4C4CCCCCCC4C3C2=O)cc1 (centres undefined)
10.4 µM (inactive)

Quick one: GI50 for COc1ccc(C(NC(=O)C[C@@H](C(=O)N(C)C(C)C(=O)O)N(C)C(=O)[C@@H]2CCCN2C(=O)[C@H](C(C)C)N(C)C(=O)C(C(C)C)N(C)C(=O)[C@H](Cc2ccccc2)N(C)C(=O)C(NC(=O)OC(C)(C)C)C(C)C)c2ccc(OC)cc2)cc1 (some centres undefined) (Boc-[ξV][NMeF][ξNMeV][NMeV]P[NMeD](X4)[ξNMeA]-OH) ?
15.8 µM (inactive)

Quick one: GI50 for CC1=C2C(=O)O[C@@H](c3ccoc3)[C@]2(C)CCC1 ?
> 100 µM (inactive)

###

system: LOX IMVI; assay: NCI tumour cell line growth inhibition, 48 h
Active and inactive are the calls of the source. Rule as the data show it: active = GI50 up to about 1.1 µM and inactive = higher.
Give one outcome, nothing more. List: active, inactive

NC(=S)N/N=c1\cc(C(=O)Nc2ccc([N+](=O)[O-])cc2[N+](=O)[O-])oc2ccccc12
inactive
NC(=O)/C=C/c1c[nH]c2nccnc12
active

Hi team, can someone confirm the assay call for CC1(C)OC2OC(C(=O)c3ccccc3)C3OC(C)(C)OC3C2O1 (centres undefined) ?
inactive

Hi team, can someone confirm the assay call for c1ccc2c(c1)[nH]c1c2cc[n+]2cc3c(cc12)CCCC3 ?
inactive
